- System: HepG2 cells
- assay-overview: cells
- applied-conditions: Homo sapiens, HepG2, read-out: MMP assays efficacy (%) HepG2
Decide by Emax: equal to or exceeding 90% means TRUE, less means FALSE.

| compound | target-of-assay | classification |
| --- | --- | --- |
| N#CC(C#N)=NNc1cccc(Cl)c1 [Carbonyl cyanide chlorophenylhydrazone] | HepG2 cells | TRUE |
| O=[N+]([O-])c1cc(C2CCCCC2)c(O)c([N+](=O)[O-])c1 [Dinex] | HepG2 cells | FALSE |
| CN(C)C(=S)SSC(=S)N(C)C [THIRAM] | HepG2 cells | FALSE |

Req: Record CC(C)[C@@H](Nc1ccc(C(F)(F)F)cc1Cl)C(=O)OC(C#N)c1cccc(Oc2ccccc2)c1 (stereo partly drawn) [tau-Fluvalinate] ; criterion: Emax no lower than 90%. Met?
Resp: FALSE

Req: Determine whether measured Emax meets or exceeds 90% for CCC[C@@]1(CCc2ccccc2)CC(O)=C([C@H](CC)c2cccc(NS(=O)(=O)c3ccc(C(F)(F)F)cn3)c2)C(=O)O1 [Tipranavir]
Resp: TRUE

Req: Dear colleague, could you confirm whether NNc1nc(-c2ccc([N+](=O)[O-])cc2)cs1 [2-Hydrazino-4-(4-nitrophenyl)thiazole] has Emax at or above 90%?
Resp: TRUE

Req: State whether the measured Emax reaches 90%, counting equality as reaching it, for O=C(Nc1ccccc1)Nc1ccccc1 [Diphenylurea]
Resp: TRUE

Req: Can Cc1cc(O)c(Cl)c(C)c1Cl [2,4-Dichloro-3,5-dimethylphenol] be said to have Emax at or above 90%?
Resp: TRUE

Req: Check the entry CC(O)(c1ccc(Cl)cc1)c1ccc(Cl)cc1 [Chlorfenethol] : does Emax equal or exceed 90%?
Resp: TRUE

Req: Does C=C(C)[C@H]1Cc2c(ccc3c2O[C@@H]2COc4cc(OC)c(OC)cc4[C@@H]2C3=O)O1 [Rotenone, reference compound] have a reported Emax of at least 90%?
Resp: TRUE

Req: Identify whether the reported Emax of the following compound is 90% or greater: O=C(NC(=O)c1c(F)cccc1F)Nc1cc(Cl)c(Oc2ncc(C(F)(F)F)cc2Cl)c(Cl)c1 [Chlorfluazuron]
Resp: TRUE

Req: Is the recorded value of Emax equal to or greater than 90% for this compound? CC(C)(C)c1cc([N+](=O)[O-])cc(C(C)(C)C)c1O [2,6-di-tert-butyl-4-nitrophenol]
Resp: TRUE

----------
- Tested on: rat primary hepatocytes
- assay-overview: MMP assay in rat primary hepatocytes
- applied-conditions: rat hepatocytes; mean ± SD of three experiments
Structures can show the parent of a compound that is named as a salt.
Rule: T for MMP assays efficacy (%) Rat Hepatocytes not less than -80%, F for anything less.

| compound | target-of-assay | classification |
| --- | --- | --- |
| N#CSCSc1nc2ccccc2s1 | rat primary hepatocytes | F |
| COC(=O)C1=C(C)NC(C)=C(C(=O)OCCN2CCN(C(c3ccccc3)c3ccccc3)CC2)C1c1cccc([N+](=O)[O-])c1 (stereo not drawn) | rat primary hepatocytes | T |
| COc1ccc(-c2coc3cc(O)ccc3c2=O)cc1 | rat primary hepatocytes | T |
| O=C=Nc1cccc(C(F)(F)F)c1 | rat primary hepatocytes | F |
| Oc1ccc(Sc2ccc(O)cc2)cc1 | rat primary hepatocytes | T |
| Cc1cc(O)c2c(c1)C(=O)c1cc(O)cc(O)c1C2=O | rat primary hepatocytes | F |

Req: Has Cc1ccc2c(c1[N+](=O)[O-])C(=O)c1ccccc1C2=O a recorded MMP assays efficacy (%) Rat Hepatocytes greater than or equal to -80%?
Resp: F

Req: Reported MMP assays efficacy (%) Rat Hepatocytes at or above -80%? CC(=O)c1ccc2ccc3ccccc3c2c1
Resp: T

Req: Check if MMP assays efficacy (%) Rat Hepatocytes >= -80% (inclusive). Item: CC(C)(C)c1cc(/C=C2\SC(N)=NC2=O)cc(C(C)(C)C)c1O [Darbufelone mesylate]
Resp: F

Req: Does CCCCCCCCCCn1cc[n+](C)c1.F[B-](F)(F)F [1-Decyl-3-methylimidazolium tetrafluoroborate] have a reported MMP assays efficacy (%) Rat Hepatocytes of at least -80%?
Resp: F

Req: Entry N=C1NC(=N)c2cc3ccccc3cc21 : is its MMP assays efficacy (%) Rat Hepatocytes no less than -80%?
Resp: T

Req: Determine whether measured MMP assays efficacy (%) Rat Hepatocytes meets or exceeds -80% for Cc1ccc2c(c1)C(=O)c1ccccc1C2=O
Resp: T
